This collection of values is drawn from ChEMBL document CHEMBL4011597.

# TESTED_SYSTEM: Xanthine dehydrogenase/oxidase (Bos taurus, UniProt P80457)
# Sequence (P80457 whole entry): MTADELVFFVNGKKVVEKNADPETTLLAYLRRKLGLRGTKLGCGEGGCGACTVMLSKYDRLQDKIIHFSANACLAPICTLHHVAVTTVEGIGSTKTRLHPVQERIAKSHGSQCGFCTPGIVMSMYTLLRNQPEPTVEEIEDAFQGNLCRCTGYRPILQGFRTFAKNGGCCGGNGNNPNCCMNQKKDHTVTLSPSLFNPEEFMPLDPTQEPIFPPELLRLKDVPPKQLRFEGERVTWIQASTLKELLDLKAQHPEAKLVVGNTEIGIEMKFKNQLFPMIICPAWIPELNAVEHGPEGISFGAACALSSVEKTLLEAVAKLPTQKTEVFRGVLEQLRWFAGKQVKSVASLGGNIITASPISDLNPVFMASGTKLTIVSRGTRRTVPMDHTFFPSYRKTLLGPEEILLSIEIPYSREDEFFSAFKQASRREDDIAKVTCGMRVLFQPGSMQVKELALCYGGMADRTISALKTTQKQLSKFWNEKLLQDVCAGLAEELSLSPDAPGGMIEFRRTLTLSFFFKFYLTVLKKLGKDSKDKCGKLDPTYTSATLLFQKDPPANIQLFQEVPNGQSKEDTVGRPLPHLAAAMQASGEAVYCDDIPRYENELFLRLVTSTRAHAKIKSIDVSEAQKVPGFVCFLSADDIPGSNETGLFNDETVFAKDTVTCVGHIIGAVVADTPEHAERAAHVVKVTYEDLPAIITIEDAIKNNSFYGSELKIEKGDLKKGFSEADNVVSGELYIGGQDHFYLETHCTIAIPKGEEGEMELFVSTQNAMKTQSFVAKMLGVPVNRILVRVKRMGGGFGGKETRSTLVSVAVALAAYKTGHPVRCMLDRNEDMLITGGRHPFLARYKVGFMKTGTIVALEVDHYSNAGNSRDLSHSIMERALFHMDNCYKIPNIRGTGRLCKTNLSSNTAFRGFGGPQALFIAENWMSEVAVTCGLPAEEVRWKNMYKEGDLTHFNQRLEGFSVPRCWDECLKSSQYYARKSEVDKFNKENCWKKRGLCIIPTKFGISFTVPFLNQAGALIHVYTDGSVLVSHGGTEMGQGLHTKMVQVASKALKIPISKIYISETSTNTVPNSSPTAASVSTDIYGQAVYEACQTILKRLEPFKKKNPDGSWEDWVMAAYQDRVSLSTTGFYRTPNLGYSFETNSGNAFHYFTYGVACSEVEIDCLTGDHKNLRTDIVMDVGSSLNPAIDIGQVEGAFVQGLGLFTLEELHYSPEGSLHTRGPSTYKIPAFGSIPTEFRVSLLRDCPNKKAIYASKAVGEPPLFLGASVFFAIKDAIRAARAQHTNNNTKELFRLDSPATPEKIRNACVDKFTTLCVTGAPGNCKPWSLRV
# MEASUREMENT_DESCRIPTION: Inhibition of bovine xanthine oxidase assessed as reduction in uric acid formation at 1 uM using xanthine as substrate pretreated for 5 mins followed by substrate addition measured by UV-vis spectrophotometric method relative to control
# COND: cattle
PARAMETER: inhibition at 1 µM (%)
Give the value in % but do not write % after it.

Solved cases below.
{"COMPOUND": "COc1ccc(Nc2ncnc3c2C(c2ccc(F)cc2)C2=C(CCCC2=O)O3)cc1 (centres undefined)", "UNITS_OF_MEASURE": "%", "inhibition at 1 µM": 27.1}
{"COMPOUND": "COc1ccc(Nc2ncnc3c2C(c2ccc(OC)c(OC)c2)c2c(n[nH]c2C)O3)cc1 (centres undefined)", "UNITS_OF_MEASURE": "%", "inhibition at 1 µM": 23.6}
{"COMPOUND": "COc1ccc(Nc2ncnc3c2C(c2cccc(Cl)c2)c2c(c(=O)oc4ccccc24)O3)cc1 (centres undefined)", "UNITS_OF_MEASURE": "%", "inhibition at 1 µM": 23.2}
{"COMPOUND": "COc1ccc(Nc2ncnc3c2C(c2ccccc2OC)c2c(c(=O)oc4ccccc24)O3)cc1 (centres undefined)", "UNITS_OF_MEASURE": "%", "inhibition at 1 µM": 30.2}
{"COMPOUND": "COc1ccc(Nc2ncnc3c2C(c2cc(OC)c(OC)c(OC)c2)C2=C(CCCC2=O)O3)cc1 (centres undefined)", "UNITS_OF_MEASURE": "%", "inhibition at 1 µM": 27.4}
{"COMPOUND": "COc1ccc(Nc2ncnc3c2C(c2cccc(Cl)c2)C2=C(CCCC2=O)O3)cc1 (centres undefined)", "UNITS_OF_MEASURE": "%", "inhibition at 1 µM": 29.2}

Please fill in: inhibition at 1 µM reported for COc1ccc(Nc2ncnc3c2C(c2ccc(OC)cc2)C2=C(CCCC2=O)O3)cc1 (centres undefined) = 32.3

In plain terms, COc1ccc(Nc2ncnc3c2C(c2ccc(Cl)cc2)c2c(c(=O)oc4ccccc24)O3)cc1 (centres undefined) has a documented inhibition at 1 µM of 21.3

COc1ccc(Nc2ncnc3c2C(c2ccccc2OC)C2=C(CCCC2=O)O3)cc1 (centres undefined) yielded inhibition at 1 µM of 34.8

====

Here, each record is paired with measured inhibition at 100 µM data.
# TESTED_SYSTEM: Xanthine dehydrogenase/oxidase (Bos taurus, UniProt P80457)
# MEASUREMENT_DESCRIPTION: Inhibition of bovine xanthine oxidase assessed as reduction in uric acid formation at 100 uM using xanthine as substrate pretreated for 5 mins followed by substrate addition measured by UV-vis spectrophotometric method relative to control
# COND: cattle
Lab book: enter the figure in %, no units written.

# inhibition at 100 µM of COc1ccc(Nc2ncnc3c2C(c2cccc([N+](=O)[O-])c2)c2c(n[nH]c2C)O3)cc1 (configuration not stated) = 28.9

Data point: COc1ccc(Nc2ncnc3c2C(c2ccc(F)cc2)C2=C(CCCC2=O)O3)cc1 (configuration not stated) ; inhibition at 100 µM = 71.1

Summary for this molecule, COc1ccc(Nc2ncnc3c2C(c2ccncc2)C2=C(CCCC2=O)O3)cc1 (configuration not stated) : inhibition at 100 µM is 46

Kindly note the recorded inhibition at 100 µM for COc1ccc(Nc2ncnc3c2C(c2ccncc2)c2c(c(=O)oc4ccccc24)O3)cc1 (configuration not stated) , which is 45.1

inhibition at 100 µM recorded for this molecule, COc1ccc(Nc2ncnc3c2C(c2cc4ccccc4[nH]2)c2c(n[nH]c2C)O3)cc1 (configuration not stated) , is 11.2

inhibition at 100 µM measured on COc1ccc(Nc2ncnc3c2C(c2ccc(OC)c(OC)c2)c2c(ccc4ccccc24)O3)cc1 (configuration not stated) = 39.4

For reference, reported inhibition at 100 µM for COc1ccc(Nc2ncnc3c2C(c2ccc(Br)cc2)c2c(ccc4ccccc24)O3)cc1 (configuration not stated) stands at 16.5

The molecule COc1ccc(Nc2ncnc3c2C(c2ccc([N+](=O)[O-])cc2)c2ccc4ccccc4c2O3)cc1 (configuration not stated) showed inhibition at 100 µM equal to 10.5

Per the record, COc1ccc(Nc2ncnc3c2C(c2ccccc2)C2=C(CCCC2=O)O3)cc1 (configuration not stated) has inhibition at 100 µM of 75.4

For this molecule ( COc1ccc(Nc2ncnc3c2C(c2cccc(C)c2)c2ccc4ccccc4c2O3)cc1 (configuration not stated) ), measured inhibition at 100 µM is 21.8

inhibition at 100 µM measured on COc1ccc(Nc2ncnc3c2C(c2ccc(O)c(O)c2)C2=C(CCCC2=O)O3)cc1 (configuration not stated) = 93.8

====

# TESTED_SYSTEM: Xanthine dehydrogenase/oxidase (Bos taurus)
# MEASUREMENT_DESCRIPTION: Inhibition of bovine xanthine oxidase assessed as reduction in uric acid formation at 10 uM using xanthine as substrate pretreated for 5 mins followed by substrate addition measured by UV-vis spectrophotometric method relative to control
# COND: cattle
Examples of molecules with documented inhibition at 10 µM follow.
Number only, in %; omit the unit.

Solved cases below.
{"MOLECULE": "COc1ccc(Nc2ncnc3c2C(c2ccc(O)cc2)c2c(c(=O)oc4ccccc24)O3)cc1 (centres undefined)", "DATA_VALUE": 41.2}
{"MOLECULE": "COc1ccc(Nc2ncnc3c2C(c2cccc(C)c2)C2=C(CCCC2=O)O3)cc1 (centres undefined)", "DATA_VALUE": 40.2}
{"MOLECULE": "COc1ccc(Nc2ncnc3c2C(c2ccc(O)c(OC)c2)C2=C(CCCC2=O)O3)cc1 (centres undefined)", "DATA_VALUE": 60}

// below: inhibition at 10 µM requested for another molecule
Recorded inhibition at 10 µM (molecule COc1ccc(Nc2ncnc3c2C(c2ccc(Br)cc2)C2=C(CCCC2=O)O3)cc1 (centres undefined) ): 33.5

====

# TESTED_SYSTEM: Xanthine dehydrogenase/oxidase (Bos taurus, UniProt P80457)
# MEASUREMENT_DESCRIPTION: Inhibition of bovine xanthine oxidase assessed as reduction in uric acid formation at 100 uM using xanthine as substrate pretreated for 5 mins followed by substrate addition measured by UV-vis spectrophotometric method relative to control
# COND: cattle
Quick rule for you: inhibition at 100 µM at 30% or higher means true (1), lower means false (0).

{"COMPOUND": "COc1ccc(Nc2ncnc3c2C(c2cccc(C)c2)C2=C(CCCC2=O)O3)cc1 (centres undefined)", "CLASSIFICATION": "true (1)"}
{"COMPOUND": "COc1ccc(Nc2ncnc3c2C(c2ccc(OC)cc2)C2=C(CCCC2=O)O3)cc1 (centres undefined)", "CLASSIFICATION": "true (1)"}
{"COMPOUND": "COc1ccc(Nc2ncnc3c2C(c2ccc(OC)cc2)c2c(c(=O)oc4ccccc24)O3)cc1 (centres undefined)", "CLASSIFICATION": "true (1)"}
{"COMPOUND": "COc1ccc(Nc2ncnc3c2C(c2ccccc2)c2ccc4ccccc4c2O3)cc1 (centres undefined)", "CLASSIFICATION": "false (0)"}
{"COMPOUND": "COc1ccc(Nc2ncnc3c2C(c2ccc(Cl)cc2)c2c(ccc4ccccc24)O3)cc1 (centres undefined)", "CLASSIFICATION": "false (0)"}

Record COc1ccc(Nc2ncnc3c2C(c2cccc4ccccc24)C2=C(CCCC2=O)O3)cc1 (centres undefined) ; criterion: inhibition at 100 µM no lower than 30%. Met?
false (0)

Decide: is the reported value of inhibition at 100 µM for COc1ccc(Nc2ncnc3c2C(c2cccc([N+](=O)[O-])c2)c2ccc4ccccc4c2O3)cc1 (centres undefined) equal to or greater than 30%?
false (0)

Reported inhibition at 100 µM reaches at least 30% for COc1ccc(Nc2ncnc3c2C(c2ccc(OC)cc2)c2ccc4ccccc4c2O3)cc1 (centres undefined) ?
true (1)

====

# TESTED_SYSTEM: Xanthine dehydrogenase/oxidase (Bos taurus, UniProt P80457)
# MEASUREMENT_DESCRIPTION: Inhibition of bovine xanthine oxidase assessed as reduction in uric acid formation at 100 uM using xanthine as substrate pretreated for 5 mins followed by substrate addition measured by UV-vis spectrophotometric method relative to control
# COND: cattle
Recorded inhibition at 100 µM for the following compounds
Write down the numeric answer in % and omit the unit.

Field inhibition at 100 µM (entry COc1ccc(Nc2ncnc3c2C(c2ccc([N+](=O)[O-])cc2)c2c(n[nH]c2C)O3)cc1 (stereo not drawn) ) reads 25.7

According to the records, this compound COc1ccc(Nc2ncnc3c2C(c2ccccc2)c2c(c(=O)oc4ccccc24)O3)cc1 (stereo not drawn) displays inhibition at 100 µM of 72.8

What the record says about COc1ccc(Nc2ncnc3c2C(c2cccc([N+](=O)[O-])c2)c2c(ccc4ccccc24)O3)cc1 (stereo not drawn) : inhibition at 100 µM is 13.3
